Attribution: patent US12636385B2

Target: Aβ(1-42) amyloid fibrils (Homo sapiens, UniProt P05067)
Construct: Aβ(1-42) amyloid fibrils
Sequence (P05067 672-713): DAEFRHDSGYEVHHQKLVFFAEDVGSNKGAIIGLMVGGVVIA
Test: ^3H-AZD2184 competition binding to Aβ(1-42) fibrils in vitro
Settings: [^3H]-AZD2184, Aβ(1-42) amyloid fibrils; average if run more than once
Procedure: Competition binding experiments to Aβ(1-42) amyloid fibrils were performed as previously described in Jureus, A., et al, Journal of Neurochemistry (2010), Vol. 114, pages 784-794 for the Example compounds of the invention indicated in Table 2, or the known tau specific ligand PBB3 (PBB3 was synthesized as previously described in M. Maruyama, et al, Neuron 2013, 79, 1094-1108). The results are shown in Table 2 in the column labeled “Aβ IC50”.
MEASUREMENT NAME: pIC50
Scale: pIC50 equals -log10([C]), with [C] in mol/L.

In the examples that follow, each entry is paired with its recorded pIC50.
# MOLECULE, MEASURED TARGET, pIC50
rows = [
    ("CCOC(=O)C1CCN(c2ccc(-c3cc4cc(O)ccc4[nH]3)c(F)n2)CC1 [Compound 65]", "Aβ(1-42) amyloid fibrils (Homo sapiens, UniProt P05067)", 7.36),
    ("OCC1CCN(c2ccc(-c3cc4cc(O)ccc4[nH]3)c(F)n2)CC1 [Compound 48]", "Aβ(1-42) amyloid fibrils (Homo sapiens, UniProt P05067)", 6.73),
    ("FCCC1CCN(c2ncc(-c3cn4ccccc4n3)cn2)CC1 [Compound 52]", "Aβ(1-42) amyloid fibrils (Homo sapiens, UniProt P05067)", 7.08),
    ("OCCC1CCN(c2ncc(-c3cc4ccccc4o3)cn2)CC1 [Compound 28]", "Aβ(1-42) amyloid fibrils (Homo sapiens, UniProt P05067)", 7.82),
    ("FCCOCCOCCOC1CCN(c2ncc(-c3cc4ccccc4o3)cn2)CC1 [Compound 33]", "Aβ(1-42) amyloid fibrils (Homo sapiens, UniProt P05067)", 8.22),
]

COc1ccc2nc(-c3ccc(N4CCC(OCCO)CC4)nc3)sc2c1 [Compound 23] has a reported pIC50 of 8.40

OCCC1CCN(c2ccc(-c3cc4ccccc4o3)c(F)n2)CC1 [Compound 46] has a reported pIC50 of 7.28

COc1ccc2nc(-c3cnc(N4CCC(CCF)CC4)nc3)cn2c1 [Compound 53] has a reported pIC50 of 7.43

COc1ccc2[nH]c(-c3ccc(N4CCC(C(N)=O)CC4)nc3)cc2c1 [Compound 71] has a reported pIC50 of 6.94

---

Assay: Rat brain cassette exposure study
Format: in vivo, Sprague Dawley rat
Conditions: male, Sprague Dawley, rat, brain; intravenous cassette dosing, samples at 2 min and 30 min; read-out: calculated half-life (t1/2) in rat brain tissue
The following molecules are shown together with reported half-life values.
API: value field is a number in min; no unit string.

# MOLECULE, half-life / min
records = [
    ("COc1ccc2[nH]c(-c3ccc(N4CCC(CO)CC4)nc3F)cc2c1 [Example Compound 47]", 15.8),
    ("OCC1CCN(c2ccc(-c3cc4cc(O)ccc4[nH]3)c(F)n2)CC1 [Example Compound 48]", 8.21),
]

API: the following record is the query input.
NC(=O)c1ccc2nc(-c3cnc(N4CCC(CCF)CC4)nc3)sc2c1 [Example Compound 43] has a reported half-life of 379

---

Target: 0N4R Tau fibrils (Homo sapiens, UniProt P10636)
Construct: made in house
Sequence (P10636 1-383 isoform P10636-6): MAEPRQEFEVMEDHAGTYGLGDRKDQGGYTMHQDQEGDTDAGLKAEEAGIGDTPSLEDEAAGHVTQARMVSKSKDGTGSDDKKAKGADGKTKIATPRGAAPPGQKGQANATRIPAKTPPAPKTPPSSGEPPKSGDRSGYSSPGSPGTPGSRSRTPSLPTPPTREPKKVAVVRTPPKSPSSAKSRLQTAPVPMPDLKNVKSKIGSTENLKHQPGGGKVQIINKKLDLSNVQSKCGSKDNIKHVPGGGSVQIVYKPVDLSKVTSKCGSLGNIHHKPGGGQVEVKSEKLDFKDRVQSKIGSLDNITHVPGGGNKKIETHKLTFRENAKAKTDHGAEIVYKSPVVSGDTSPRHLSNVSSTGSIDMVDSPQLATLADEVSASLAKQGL
Assay: ^3H-THK5117 competition binding to tau fibrils in vitro
Conditions: calculated from [^3H]-THK5117 tau and [^3H]-AZD2184 Aβ assays
Classes are defined on Selectivity for tau relative to Aβ with ranges lower band = under 3, central band = from 3 up to 10, upper band = 10 and over

# COMPOUND, LABEL
records = [
    ("FCCCCOC1CCN(c2ccc(-c3nc4ccccc4s3)cn2)CC1 [Compound 5]", "central band"),
    ("N#Cc1ccc2nc(-c3cnc(N4CCC(CCO)CC4)nc3)sc2c1 [Compound 40]", "upper band"),
    ("OCCC1CCN(c2ccc(-c3cc4ccccc4o3)c(F)n2)CC1 [Compound 46]", "central band"),
]

Incoming: Which class holds COc1ccc2nc(-c3ccc(N4CCC(CCOCCOCCOCCF)CC4)nc3)sc2c1 [Compound 22] ?
Outgoing: lower band

Incoming: Which class holds Oc1ccc2nc(-c3cnc(N4CCC(CCF)CC4)nc3)sc2c1 [Compound 39] ?
Outgoing: upper band

Incoming: Which class holds OCC1CCN(c2ncc(-c3nc4ccc(OCCF)cc4s3)cn2)CC1 [Compound 58] ?
Outgoing: central band

Incoming: Which class holds COc1ccc2nc(-c3cnc(N4CCC(CCOCCOCCOCCF)CC4)nc3)sc2c1 [Compound 26] ?
Outgoing: lower band

Incoming: Which class holds COc1ccc2nc(-c3cnc(N4CCC(CCF)CC4)nc3)cn2c1 [Compound 53] ?
Outgoing: lower band

Incoming: Which class holds COc1ccc2nc(-c3ccc(N4CCC(CCF)CC4)nc3)sc2c1 [Compound 24] ?
Outgoing: lower band

Incoming: Which class holds COc1ncc2cc(-c3ccc(N4CCC(CO)CC4)nc3F)[nH]c2n1 [Compound 76] ?
Outgoing: upper band

Incoming: Which class holds FCCCCOCC1CCN(c2ccc(-c3nc4ccccc4s3)cn2)CC1 [Compound 3] ?
Outgoing: central band

Incoming: Which class holds OC1CCN(c2ncc(-c3cc4ccccc4o3)cn2)CC1 [Compound 32] ?
Outgoing: lower band

Incoming: Which class holds FCCOCCOCCOC1CCN(c2ncc(-c3cc4ccccc4o3)cn2)CC1 [Compound 33] ?
Outgoing: lower band

Incoming: Which class holds COc1ccc2nc(-c3cnc(N4CCC(CCO)CC4)nc3)sc2c1 [Compound 25] ?
Outgoing: upper band

Incoming: Which class holds COc1ccc2nc(-c3ccc(N4CCC(CCO)CC4)nc3)sc2c1 [Compound 21] ?
Outgoing: upper band

---

Molecular target: 0N4R Tau fibrils (Homo sapiens, UniProt P10636)
Test: ^3H-THK5117 competition binding to tau fibrils in vitro
Conditions: 3 nM [^3H]-THK5117, recombinant 0N4R tau fibrils; average if run more than once
pIC50: −log10 of the molar value.
Returns one of True or False; True when pIC50 is >= 8.

Worked set:
# COMPOUND, LABEL
records = [
    ("O=C(NCCF)c1ccc2nc(-c3cnc(N4CCC(CCO)CC4)nc3)sc2c1", "False"),
    ("OCCC1CCN(c2ccc(-c3cc4ccccc4s3)cn2)CC1", "True"),
    ("FCCC1CCN(c2ncc(-c3cn4ccccc4n3)cn2)CC1", "False"),
    ("OCC1CCN(c2ccc(-c3nc4ccc(OCCF)cc4o3)cn2)CC1", "False"),
    ("COS(=O)(=O)CCC1CCN(c2ncc(-c3cc4ccccc4o3)cn2)CC1", "False"),
]

Incoming: Record `CC1CCN(c2ccc(-c3nc4ccccc4o3)cn2)CC1` ; criterion: pIC50 no lower than 8. Met?
Outgoing: False

Incoming: Record `COC(=O)C1CCN(c2ccc(-c3cc4cc(O)ccc4[nH]3)c(F)n2)CC1` ; criterion: pIC50 no lower than 8. Met?
Outgoing: True

Incoming: Record Nc1c(F)ccc2cnc(-n3ccc4ccncc43)cc12 [MK-6240, reference compound] ; criterion: pIC50 no lower than 8. Met?
Outgoing: False

Incoming: Record `OCCC1CCN(c2ccc(-c3nc4cnccc4o3)cn2)CC1` ; criterion: pIC50 no lower than 8. Met?
Outgoing: False

Incoming: Record `OCC1CCN(c2ccc(-c3cc4cc(O)ccc4[nH]3)c(F)n2)CC1` ; criterion: pIC50 no lower than 8. Met?
Outgoing: True

---

Target: 0N4R Tau fibrils (Homo sapiens, UniProt P10636)
Experiment: ^3H-THK5117 competition binding to tau fibrils in vitro
Details: 3 nM [^3H]-THK5117, recombinant 0N4R tau fibrils; average if run more than once
MEASUREMENT NAME: pIC50
Scale: pIC50 equals -log10([C]), with [C] in mol/L.

# COMPOUND, pIC50
rows = [
    ("FCCC1CCN(c2ccc(-c3nc4cnccc4o3)cn2)CC1 [Compound 20]", 7.22),
    ("COc1ncc2cc(-c3ccc(N4CCC(CO)CC4)nc3F)[nH]c2n1 [Compound 76]", 8.05),
    ("OCCC1CCN(c2ncc(-c3nc4ccc(O)cc4s3)cn2)CC1 [Compound 38]", 8.22),
    ("FCCCCOC1CCN(c2ccc(-c3nc4ccccc4s3)cn2)CC1 [Compound 5]", 8.30),
    ("CS(=O)(=O)OCCC1CCN(c2ccc(-c3nc4cnccc4o3)cn2)CC1 [Compound 19]", 7.12),
]

API: the following record is the query input.
NC(=O)c1ccc2cc(-c3cnc(N4CCC(CF)CC4)nc3)[nH]c2c1 [Compound 70] has a reported pIC50 of 7.70

---

Molecular target: Aβ(1-42) amyloid fibrils (Homo sapiens, UniProt P05067)
Construct: Aβ(1-42) amyloid fibrils
Experiment: ^3H-AZD2184 competition binding to Aβ(1-42) fibrils in vitro
Details: [^3H]-AZD2184, Aβ(1-42) amyloid fibrils; average if run more than once
The following molecules are shown together with reported IC50 values.

In the examples that follow, each entry is paired with its recorded IC50.
# ITEM SMILES, IC50
measured = [
    ("OCC1CCN(c2ccc(-c3nc4ccc(OCCF)cc4o3)cn2)CC1", "9 nM"),
    ("OCC1CCN(c2ncc(-c3cc4cc(OCCF)ccc4[nH]3)cn2)CC1", "42 nM"),
    ("COc1ccc2nc(-c3cnc(N4CCC(CCOCCOCCOCCF)CC4)nc3)sc2c1", "8 nM"),
    ("OCC1CCN(c2ccc(-c3cc4ccccc4o3)c(F)n2)CC1", "42 nM"),
    ("COc1ccc2nc(-c3cnc(N4CCC(CCO)CC4)nc3)sc2c1", "65 nM"),
    ("FCCCCOC1CCN(c2ccc(-c3nc4ccccc4s3)cn2)CC1", "24 nM"),
    ("COC(=O)C1CCN(c2ccc(-c3cc4cc(O)ccc4[nH]3)c(F)n2)CC1", "32 nM"),
    ("COc1ccc2[nH]c(-c3ccc(N4CCC(CO)CC4)nc3F)cc2c1", "33 nM"),
    ("OCCC1CCN(c2ccc(-c3nc4ccccc4s3)cn2)CC1", "15 nM"),
    ("COc1ncc2cc(-c3ccc(N4CCC(CO)CC4)nc3F)[nH]c2n1", "322 nM"),
]

`FCCCCOCC1CCN(c2ccc(-c3nc4ccccc4s3)cn2)CC1` has a reported IC50 of 43 nM

`COc1ccc2nc(-c3ccc(N4CCC(CCF)CC4)nc3)sc2c1` has a reported IC50 of 1 nM

`OCCC1CCN(c2ccc(-c3nc4ccc(O)cc4s3)cn2)CC1` has a reported IC50 of 91 nM

`COc1ccc2nc(-c3ccc(N4CCC(CCO)CC4)nc3)sc2c1` has a reported IC50 of 70 nM

`OCC1CCN(c2ncc(-c3nc4ccc(OCCF)cc4s3)cn2)CC1` has a reported IC50 of 37 nM
